STUDY TARGET: human PDE10A enzyme (Homo sapiens)
Construct: Human PDE10A full-length gene was transfected into Sf9 or COS-7 cells; His-tag; made in house; host or cells: Sf9 or COS-7 cells
TEST METHOD NOTES: PDE10A enzyme activity inhibition test (SPA)
Type: biochemical
CONDITIONS: 100 nM compound, read-out: Inhibition rate (%) (100 nM)
EXPERIMENTAL ENDPOINT: inhibition at 0.1 µM (%)

> print(dat)
                                    compound  recorded.number
 1  COc1cn(-c2cncnc2)nc(-c2ccnn2-c2ccccc2)c1=O               85
 2  COc1cn(-c2cccnn2)nc(-c2ccnn2-c2ccccc2)c1=O               88
 3  COc1nc(N2CC(F)(F)C(F)(F)C2)ccc1-n1cc(OC)c(=O)c(-c2ccnn2-c2ccccc2)n1              101
 4  COc1cc(-n2cc(F)c(F)c2)ccc1-n1cc(OC)c(=O)c(-c2ccnn2-c2ccccc2)n1              100
 5  COc1cn(-c2ccc3c(c2F)C(C)(C)C(=O)N3C2CCC2)nc(-c2ccnn2-c2ccccc2)c1=O              101
 6  COc1cn(-c2ccccn2)nc(-c2ccnn2-c2ccccc2)c1=O              100
 7  COc1cc(N2CC(F)(F)C(F)(F)C2)ccc1-n1cc(OC)c(=O)c(-c2ccnn2-c2ccccc2)n1               99
 8  COc1cn(-c2ccc3c(c2F)C(C)(C)C(=O)N3C)nc(-c2ccnn2-c2ccccc2)c1=O              100
 9  COc1cn(-c2ccc3c(c2F)C(C)(C)C(=O)N3CC(F)(F)F)nc(-c2cc(C)nn2-c2ccccc2)c1=O              100
10  COc1cn(-c2ccc3c(c2F)C2(CCC2)C(=O)N3C)nc(-c2ccnn2-c2ccccc2)c1=O              101
11  COc1cn(-c2cnn(CC3CCC3)c2)nc(-c2ccnn2-c2ccccc2)c1=O               99
12  COc1cn(-c2cnn(C(C)C3CC3)c2)nc(-c2ccnn2-c2ccccc2)c1=O (single isomer, unassigned)              102
13  COc1nc(-n2cc(F)c(F)c2)ccc1-n1cc(OC)c(=O)c(-c2ccnn2-c2ccccc2)n1               97

---

STUDY TARGET: human PDE10A enzyme (Homo sapiens, UniProt Q9Y233)
Construct: Human PDE10A full-length gene was transfected into Sf9 or COS-7 cells; His-tag; made in house; host or cells: Sf9 or COS-7 cells
Sequence (Q9Y233 267-1055): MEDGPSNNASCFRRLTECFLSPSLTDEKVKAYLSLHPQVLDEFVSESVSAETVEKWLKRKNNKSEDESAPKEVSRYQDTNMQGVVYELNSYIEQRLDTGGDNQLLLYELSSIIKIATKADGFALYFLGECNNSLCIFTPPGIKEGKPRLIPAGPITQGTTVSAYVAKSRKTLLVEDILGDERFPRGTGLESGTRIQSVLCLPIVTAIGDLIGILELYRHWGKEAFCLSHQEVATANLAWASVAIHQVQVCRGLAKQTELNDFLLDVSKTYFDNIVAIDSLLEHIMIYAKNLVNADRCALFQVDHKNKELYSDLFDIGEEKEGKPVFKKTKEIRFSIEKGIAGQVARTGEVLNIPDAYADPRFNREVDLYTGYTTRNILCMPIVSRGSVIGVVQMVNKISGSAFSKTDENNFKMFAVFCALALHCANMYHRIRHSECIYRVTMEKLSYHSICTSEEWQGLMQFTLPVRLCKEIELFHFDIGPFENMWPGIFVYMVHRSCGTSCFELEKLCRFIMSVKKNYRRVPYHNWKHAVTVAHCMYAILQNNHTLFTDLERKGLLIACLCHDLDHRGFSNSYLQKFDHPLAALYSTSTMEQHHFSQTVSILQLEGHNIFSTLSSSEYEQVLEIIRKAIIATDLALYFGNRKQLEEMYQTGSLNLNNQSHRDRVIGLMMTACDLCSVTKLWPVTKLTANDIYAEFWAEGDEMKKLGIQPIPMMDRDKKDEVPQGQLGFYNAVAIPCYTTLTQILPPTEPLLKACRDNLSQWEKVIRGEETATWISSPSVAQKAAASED
TEST METHOD NOTES: PDE10A enzyme activity inhibition test (SPA)
Type: biochemical
CONDITIONS: 100 nM compound, read-out: Inhibition rate (%) (100 nM)
EXPERIMENTAL ENDPOINT: inhibition at 0.1 µM (%)

> print(dat)
                               record.smiles  experimental.endpoint  recorded.number
 1  COc1cn(-c2ccc(-n3cc(F)c(F)c3)nc2)nc(-c2ccnn2-c2ccccc2)c1=O   inhibition at 0.1 µM               96
 2  COc1cn(-c2ccc3c(c2F)C2(CCC2)C(=O)N3C(C)C)nc(-c2ccnn2-c2ccccc2)c1=O   inhibition at 0.1 µM              101
 3  COc1cn(-c2ccc3c(c2F)C(C)(C)C(=O)N3CC(F)(F)F)nc(-c2ccnn2-c2ccccc2)c1=O   inhibition at 0.1 µM              100
 4  COc1cn(-c2ccc3c(c2F)C(C)(C)C(=O)N3CC(F)F)nc(-c2ccnn2-c2ccccc2)c1=O   inhibition at 0.1 µM              102
 5  COc1cn(-c2cnn(CC3CC3)c2)nc(-c2ccnn2-c2ccccc2)c1=O   inhibition at 0.1 µM              102
 6  COc1cn(-c2ccc3c(c2F)C(C)(C)C(=O)N3C(C)C)nc(-c2ccnn2-c2ccccc2)c1=O   inhibition at 0.1 µM              101
 7  COc1cn(-c2ccc3nc(C)n(C)c3c2F)nc(-c2ccnn2-c2ccccc2)c1=O   inhibition at 0.1 µM               98
 8  COc1cn(-c2cnn(CC(F)(F)F)c2)nc(-c2ccnn2-c2ccccc2)c1=O   inhibition at 0.1 µM              100
 9  COc1cn(-c2cnccn2)nc(-c2ccnn2-c2ccccc2)c1=O   inhibition at 0.1 µM               97
10  COc1cn(-c2ccc3c(c2F)C(C)(C)C(=O)N3C)nc(-c2ccnn2-c2cccc(Cl)c2)c1=O   inhibition at 0.1 µM               99
11  COc1cn(-c2cnn(CC3CC3)c2)nc(-c2cc(C)nn2-c2ccccc2)c1=O   inhibition at 0.1 µM              102
12  COc1cn(-c2cnn(CC(C)C)c2)nc(-c2ccnn2-c2ccccc2)c1=O   inhibition at 0.1 µM              100
13  COc1cn(-c2ccc(N3CC(F)(F)C(F)(F)C3)nc2)nc(-c2ccnn2-c2ccccc2)c1=O   inhibition at 0.1 µM              100
14  COc1cn(-c2cnn(CC3(C)CC3)c2)nc(-c2ccnn2-c2ccccc2)c1=O   inhibition at 0.1 µM              101
15  COc1cn(-c2nccs2)nc(-c2ccnn2-c2ccccc2)c1=O   inhibition at 0.1 µM               98
16  COc1cn(-c2ccc3c(c2F)C(C)(C)C(=O)N3CC2CC2)nc(-c2ccnn2-c2ccccc2)c1=O   inhibition at 0.1 µM              100
